Assay: Stability of analytes in rat plasma (auto-sampler, freeze-thaw, room temperature, long-term)
Conditions: 12.5 ng/mL, −80°C 1 month
OUTCOME_MEASURE: −80°C for 1month Accuracy (%)
Answers are plain numbers, in %.

Completed entries (count: 5):
>>> observed_result("O=C(/C=C/c1ccc(O)c(O)c1)O[C@H]1[C@H](O)C[C@](O)(C(=O)O)C[C@H]1O [cryptochlorogenic acid]")
90.6
>>> observed_result("O=C1C[C@@H](c2ccc(O[C@@H]3O[C@H](CO)[C@@H](O)[C@H](O)[C@H]3O)cc2)Oc2cc(O)ccc21 [liquiritin]")
94.1
>>> observed_result("O=C(O)[C@H]1O[C@@H](Oc2cc(O)c3c(=O)cc(-c4ccc(O)cc4)oc3c2)[C@H](O)[C@@H](O)[C@@H]1O [apigenin-7-O-glucuronide]")
86.0
>>> observed_result("COc1ccc(-c2coc3cc(O[C@@H]4O[C@H](CO)[C@@H](O)[C@H](O)[C@H]4O)ccc3c2=O)cc1 [ononin]")
92.2
>>> observed_result("C[C@@H]1O[C@@H](Oc2c(-c3ccc(O)c(O)c3)oc3cc(O)cc(O)c3c2=O)[C@H](O)[C@H](O)[C@H]1O [quercitrin]")
97.1

We now examine a further molecule.
Measured −80°C for 1month Accuracy (%) of COc1ccc([C@@H]2CC(=O)c3c(O)cc(O[C@@H]4O[C@H](CO[C@@H]5O[C@@H](C)[C@H](O)[C@@H](O)[C@H]5O)[C@@H](O)[C@H](O)[C@H]4O)cc3O2)cc1O [hesperidin] : 81.8
